Target Or System: corticotropin releasing factor 1 receptor
Test Name: cell-based or functional assay
Ends that are not written are not given here.
Measurement Label: CRF1R Emax % (%)
Numbers only here, please. The scale is %.

{"columns": ["Binder", "Unit Label", "CRF1R Emax %"],
 "data": [
  ["ZGPPISIDLPFFLLRKVIEIEKQEKEKQQAANNALLLATI (C-terminal amide) [SEQ ID NO 317]", "%", 100],
  ["ZGPPISIDVPFQLLRKVIEIEKQEKEKQQAANNARLLDTI (C-terminal amide) [SEQ ID NO 382]", "%", 8]
]}

The recorded CRF1R Emax % for entry DNPSLSIDLPLLLLRTLLELEKTQSQRERAEQNAQIFAQV-NH2 [SEQ ID NO 327] equals 36.5
